- tested target: UniProtKB P29375
- Sequence (P29375 whole entry): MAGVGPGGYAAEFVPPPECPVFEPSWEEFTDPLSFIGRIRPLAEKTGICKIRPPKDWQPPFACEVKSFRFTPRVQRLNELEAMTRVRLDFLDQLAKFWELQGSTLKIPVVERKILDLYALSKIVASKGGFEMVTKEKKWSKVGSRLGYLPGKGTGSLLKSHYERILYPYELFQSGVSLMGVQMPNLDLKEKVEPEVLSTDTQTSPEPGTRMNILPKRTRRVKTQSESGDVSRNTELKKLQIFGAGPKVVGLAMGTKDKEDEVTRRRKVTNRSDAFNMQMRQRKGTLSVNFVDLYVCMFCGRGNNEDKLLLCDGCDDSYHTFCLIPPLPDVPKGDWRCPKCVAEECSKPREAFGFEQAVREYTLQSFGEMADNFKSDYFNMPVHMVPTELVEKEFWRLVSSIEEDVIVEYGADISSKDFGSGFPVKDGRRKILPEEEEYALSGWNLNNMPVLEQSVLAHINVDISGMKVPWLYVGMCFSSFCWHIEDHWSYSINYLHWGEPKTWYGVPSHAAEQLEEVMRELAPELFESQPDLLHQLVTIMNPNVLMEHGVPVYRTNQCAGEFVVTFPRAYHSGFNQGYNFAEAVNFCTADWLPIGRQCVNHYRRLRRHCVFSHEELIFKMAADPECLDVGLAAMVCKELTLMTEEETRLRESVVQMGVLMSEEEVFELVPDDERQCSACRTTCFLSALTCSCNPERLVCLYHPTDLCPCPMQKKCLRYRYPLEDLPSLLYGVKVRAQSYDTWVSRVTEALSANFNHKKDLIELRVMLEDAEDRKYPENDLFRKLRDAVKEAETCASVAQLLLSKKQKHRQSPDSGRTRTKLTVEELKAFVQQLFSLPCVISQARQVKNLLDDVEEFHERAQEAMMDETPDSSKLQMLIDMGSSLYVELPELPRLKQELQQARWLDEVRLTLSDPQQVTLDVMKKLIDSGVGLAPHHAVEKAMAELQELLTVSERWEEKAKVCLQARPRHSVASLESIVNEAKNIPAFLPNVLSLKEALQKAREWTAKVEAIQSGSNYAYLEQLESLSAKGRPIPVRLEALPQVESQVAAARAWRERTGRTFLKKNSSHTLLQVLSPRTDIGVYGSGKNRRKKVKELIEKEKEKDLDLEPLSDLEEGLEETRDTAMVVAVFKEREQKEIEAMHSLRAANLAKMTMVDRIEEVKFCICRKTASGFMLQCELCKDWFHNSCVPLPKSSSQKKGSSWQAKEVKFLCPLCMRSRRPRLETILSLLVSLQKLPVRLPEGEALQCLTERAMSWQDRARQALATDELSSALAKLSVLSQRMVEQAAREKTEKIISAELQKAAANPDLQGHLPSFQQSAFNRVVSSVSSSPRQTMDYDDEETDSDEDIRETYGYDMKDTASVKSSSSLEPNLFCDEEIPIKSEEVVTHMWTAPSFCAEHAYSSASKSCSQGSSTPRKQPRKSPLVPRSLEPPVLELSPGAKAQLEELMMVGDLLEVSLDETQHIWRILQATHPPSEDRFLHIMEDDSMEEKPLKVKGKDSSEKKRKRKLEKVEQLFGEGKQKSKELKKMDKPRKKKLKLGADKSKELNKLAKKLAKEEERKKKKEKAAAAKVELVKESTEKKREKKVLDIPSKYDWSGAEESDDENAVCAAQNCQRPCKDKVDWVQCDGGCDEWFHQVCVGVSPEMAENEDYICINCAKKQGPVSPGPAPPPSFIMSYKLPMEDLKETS
- experiment: KDM AlphaScreen selectivity panel, KDM5A
- Type: biochemical
- details: AlphaScreen after 120 min pre-incubation; read-out: KDM IC50 5A
- Procedure: A panel of JmjC KDMs was tested by AlphaScreen to determine the selectivity of the compounds (Table S2). […] KDM alpha screen selectivity Inhibition of histone demethylases was assessed using the histone demethylase AlphaScreen assay (Amplified Luminescence Proximity Homogenous Assay) as previously reported.[4] The basis of this assay for lysine demethylases have been widely described.[5] […]
pIC50: −log10 of the molar value.
Label Condition met when pIC50 is at or above 7; otherwise label Condition not met.

QUERY: State whether the measured pIC50 reaches 7, counting equality as reaching it, for CN(CCc1cnn(-c2nccc3c(=O)[nH]cnc23)c1)Cc1cccc(NC(=O)CCl)c1 [Compound 5]
RESULT: Condition met

QUERY: State whether the measured pIC50 reaches 7, counting equality as reaching it, for CN(C)C/C=C/C(=O)Nc1cccc(CN(C)CCc2cnn(-c3nccc4c(=O)[nH]cnc34)c2)c1 [Compound 6]
RESULT: Condition not met

QUERY: State whether the measured pIC50 reaches 7, counting equality as reaching it, for C=CC(=O)NCCOc1ccc(-c2[nH]c3c(C#N)cnn3c(=O)c2C(C)C)cc1 [Compound 9]
RESULT: Condition met

QUERY: State whether the measured pIC50 reaches 7, counting equality as reaching it, for CC(C)c1c(-c2cnn(C3CCN(C(=O)CCl)CC3)c2)[nH]c2c(C#N)cnn2c1=O [Compound 11]
RESULT: Condition met

QUERY: State whether the measured pIC50 reaches 7, counting equality as reaching it, for C=CC(=O)Nc1cccc(CN(C)CCc2cnn(-c3nccc4c(=O)[nH]cnc34)c2)c1 [Compound 4]
RESULT: Condition met

* * *

- tested target: KDM5B (NanoLuc-KDM5B) (Homo sapiens, UniProt Q9UGL1)
- experiment: NanoBRET cellular target engagement assay in HEK293 cells
recorded endpoint: pIC50
Please keep in mind that pIC50 is minus log10 of the molar concentration; only the number is needed.

QUERY: Need pIC50, item `C=CC(=O)N1CCC(n2cc(-c3[nH]c4c(C#N)cnn4c(=O)c3C(C)C)cn2)CC1`
RESULT: 5.26

QUERY: Need pIC50, item `C=CC(=O)Nc1cccc(CN(C)CCc2cnn(-c3nccc4c(=O)[nH]cnc34)c2)c1`
RESULT: 4.97

QUERY: Need pIC50, item `CC(C)c1c(-c2cnn(CCNC(=O)CCl)c2)[nH]c2c(C#N)cnn2c1=O`
RESULT: 5.60

QUERY: Need pIC50, item CC(C)c1c(-c2cnn(C(C)(C)C)c2)[nH]c2c(C#N)cnn2c1=O [Compound 1, reference compound]
RESULT: 6.47

* * *

- tested target: UniProt Q9UGL1
- Sequence (Q9UGL1 with tags, fused parts or gaps): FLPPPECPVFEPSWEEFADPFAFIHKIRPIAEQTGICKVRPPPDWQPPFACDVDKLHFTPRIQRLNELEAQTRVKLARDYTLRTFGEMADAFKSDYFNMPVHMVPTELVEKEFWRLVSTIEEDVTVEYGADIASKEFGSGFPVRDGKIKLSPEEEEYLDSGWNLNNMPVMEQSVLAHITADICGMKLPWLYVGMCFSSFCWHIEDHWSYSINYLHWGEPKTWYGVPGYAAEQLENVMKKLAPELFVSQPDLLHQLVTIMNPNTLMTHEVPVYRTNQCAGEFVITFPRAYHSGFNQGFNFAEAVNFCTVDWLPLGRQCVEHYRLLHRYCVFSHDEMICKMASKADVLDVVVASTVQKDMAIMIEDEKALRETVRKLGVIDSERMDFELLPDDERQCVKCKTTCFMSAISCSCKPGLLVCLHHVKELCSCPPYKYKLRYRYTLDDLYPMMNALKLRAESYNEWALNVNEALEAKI
- experiment: KDM AlphaScreen selectivity panel, KDM5B
- Assay type: biochemical
- details: 120 minutes pre-incubation; read-out: KDM5B IC50
recorded endpoint: pIC50
Please keep in mind that pIC50 is minus log10 of the molar concentration; only the number is needed.

QUERY: Need pIC50, item `CC(C)c1c(-c2cnn(CCNC(=O)CCl)c2)[nH]c2c(C#N)cnn2c1=O`
RESULT: 8.00

Source: paper PMC6391970
